I'd appreciate it if you could supply log10 IC50 values for the items below.
system: A375 malignant melanoma; experiment: Inhibition of cell proliferation (14C-thymidine incorporation), A375; assay type: cell-based, human; conditions: Homo sapiens, A-375
Scale: log10; quantity: IC50; unit before log: µM

Worked set:
{"columns": ["compound", "value_observed"],
 "data": [
  ["Clc1ccc(Nc2nccc(-c3c[nH]c4ncccc34)n2)c(Cl)c1 [Cpd 36]", -0.35],
  ["Cc1cc(CCN(C)C)ccc1Nc1nccc(-c2c[nH]c3ncccc23)n1 [Cpd 46]", -3.20],
  ["Cc1ccccc1Nc1nccc(-c2c[nH]c3ncccc23)n1 [Cpd 8]", -1.62],
  ["FC(F)(F)c1ccccc1Nc1nccc(-c2c[nH]c3ncccc23)n1 [Cpd 29]", -0.39]
]}

As a next step, examine the compound that follows.
According to the records, this compound c1cnc2[nH]cc(-c3ccnc(N[C@H]4CC5CCC4C5)n3)c2c1 (some centres unmarked) [Cpd 59] displays log10 IC50 of -0.60

Values from patent US7855205B2
